system: S. Typhi PhoP-promoter GFP reporter, fluorescence, 4 h; test: PhoP regulon inhibitor project modified counter assay, GFP fluorescence readout, dose response (AID 1985)
Entries and their measured IC50 follow.

# compound, observedMeasurement
records = [
    ("O=Cc1c(Cl)nc2ccccn2c1=O", "132 µM"),
    ("O=C(Nc1c2ccccc2nc2ccccc12)C(Cl)(Cl)Cl", "43.8 µM"),
]

Ask: Would you mind telling me what IC50 value was observed for "Nc1cc(Cl)c2nonc2c1[N+](=O)[O-]" ?
Reply: 19.6 µM

Ask: Please answer likewise for "O=C(O)c1cc2c(cn1)[nH]c1ccccc12"
Reply: 73 µM

Ask: Please answer likewise for CCCCC(CC)CN=C(N)NC(N)=NCCCCCCN=C(N)NC(N)=NCC(CC)CCCC (configuration not stated)
Reply: 2.61 µM

Ask: Please answer likewise for "COc1cc([N+](=O)[O-])cc(/C=N/NC(=O)c2cccnc2)c1O"
Reply: 66.7 µM

Ask: Please answer likewise for "O=C(NNc1nc2ccc(F)cc2s1)c1cccc(F)c1"
Reply: 148 µM

Ask: Please answer likewise for Clc1ccc(C(c2ccccc2)N2CCNCC2)cc1 (configuration not stated)
Reply: 144 µM

Ask: Please answer likewise for "CN(C)CCCNc1cc(C(C)(C)C)nc2c(-c3ccccc3)cnn12"
Reply: 75.7 µM

Ask: Please answer likewise for "O=[N+]([O-])c1cccc(NNS(=O)(=O)c2ccccc2F)c1"
Reply: 8.04 µM

Ask: Please answer likewise for "CS(=O)(=O)c1ccc([C@@H](O)[C@@H](CF)NC(=O)C(Cl)Cl)cc1"
Reply: 4.74 µM

Ask: Please answer likewise for "O=C(Cc1cccs1)N/N=C\c1ccc([N+](=O)[O-])s1"
Reply: 20.1 µM

----------
system: S. Typhi PhoP-promoter GFP reporter, fluorescence, 4 h; test: PhoP regulon inhibitor project modified counter assay, GFP fluorescence readout, dose response (AID 1985)
experimentalEndpoint: pIC50
// returns pIC50 (minus log10 of molar concentration), number only

Look over these answered cases.
# compound, assayedSystem, pIC50
measured = [
    ("CCc1ccc2c(c1)C1(NN=C(c3ccc(C)cc3)S1)C(=O)N2 (stereo unspecified)", "S. Typhi PhoP-promoter GFP reporter, fluorescence, 4 h", 4.61),
    ("CCCCOc1ccc(CN=C(N)N)cc1Cl", "S. Typhi PhoP-promoter GFP reporter, fluorescence, 4 h", 3.99),
    ("COc1ccc(Nc2c3ccccc3nc3ccccc23)cc1", "S. Typhi PhoP-promoter GFP reporter, fluorescence, 4 h", 4.27),
]

Ask: Would you mind telling me what pIC50 value was observed for "Clc1ccc(CN2CCc3c([nH]c4ccccc34)C2)cc1Cl" ?
Reply: 4.31

Ask: Please answer likewise for "O=C(O)/C(=C\C(=O)c1ccccc1)Nc1ccccc1"
Reply: 4.69

Ask: Please answer likewise for "C=CC1=C(C(=O)O)N2C(=O)[C@@H](NC(=O)/C(=N/OCC(=O)O)c3csc(N)n3)[C@H]2SC1"
Reply: 4.68

----------
tested on: S. Typhi PhoP-promoter GFP reporter, fluorescence, 4 h; test: PhoP regulon inhibitor project modified counter assay, GFP fluorescence readout, dose response (AID 1985)
Entries and their measured pIC50 follow.
// returns pIC50 (minus log10 of molar concentration), number only

# molecule, assayedSystem, observedMeasurement
measured = [
    ("C#CCOCCOCCOCCNc1nc(N2CCN(C(=O)[C@H]([C@@H](C)CC)n3cc([C@@H](N)Cc4ccc(O)cc4)nn3)CC2)nc(N2CCN(C(=O)[C@H](Cc3cc4ccccc4[nH]3)n3cc([C@@H](N)CC(C)C)nn3)CC2)n1", "S. Typhi PhoP-promoter GFP reporter, fluorescence, 4 h", 3.83),
    ("O=C(Nc1nc(-c2ccccn2)cs1)c1ccc(Br)s1", "S. Typhi PhoP-promoter GFP reporter, fluorescence, 4 h", 4.70),
    ("CCCCCCCSc1cc(OC)c(CCN(C)C)cc1OC", "S. Typhi PhoP-promoter GFP reporter, fluorescence, 4 h", 4.08),
    ("CC(C(=O)NC1CCS(=O)(=O)C1)N1C(=O)/C(=C/c2ccc(Cl)cc2)SC1=S (stereo not given)", "S. Typhi PhoP-promoter GFP reporter, fluorescence, 4 h", 4.74),
    ("Nc1ncn(C2O[C@H](CO)[C@@H](O)[C@H]2O)c(=O)n1 (stereo not given in full)", "S. Typhi PhoP-promoter GFP reporter, fluorescence, 4 h", 5.00),
    ("O=C(Nc1csc(Cl)c1)c1ccccc1", "S. Typhi PhoP-promoter GFP reporter, fluorescence, 4 h", 4.36),
]

Ask: Would you mind telling me what pIC50 value was observed for "Oc1ccc(Cl)cc1Cc1cc(Cl)ccc1O" ?
Reply: 4.44

Ask: Please answer likewise for "CCCCCOc1ccc(CSC2=NCCN2)cc1[N+](=O)[O-]"
Reply: 4.02

Ask: Please answer likewise for "CCN1/C(=C/c2cc[n+](C)cc2)C=Cc2cc(C)ccc21"
Reply: 4.10

Ask: Please answer likewise for Brc1ccc2c(c1)C(OC1CN3CCC1CC3)c1ccccc1CS2 (stereo not given)
Reply: 4.02

Provenance of the data: PubChem BioAssay AID1985
